- target_entity: Human PKC theta (Homo sapiens)
- Construct: expressed in transfected cells; host or cells: yeast (XenoGene strain)
- method_summary: XenoGene yeast growth inhibition, yeast containing human PKC theta gene
- Format: cell-based
- condition: XenoGene system; read-out: PKC-theta IC50
Entries and their IC50 values follow.
measured_attribute: IC50

- Nc1ccc(Oc2cc(Cl)cc(Cl)c2)cc1 [Compound 504]: 1600 nM
- CC(C)(C)c1ccc(Oc2ccc(N)cc2)cc1 [Compound 471]: 140 nM
- Cc1cc(Oc2ccc(N)cc2)ccc1Cl [Compound 505]: 400 nM
- Nc1ccc(Sc2ccc(C(F)(F)F)cc2)cc1 [Compound 741]: 250 nM
- CC(C)(C)c1ccc(Sc2ccc(N)cc2)cc1 [Compound 740]: 50 nM
- Nc1ccc(Oc2ccc(Cl)cc2Cl)cc1 [Compound 506, 4-(2,4-dichlorophenoxy)aniline]: 1600 nM

====

- target_entity: Human PKC theta (Homo sapiens, UniProt Q04759)
- Construct: expressed in transfected cells; host or cells: yeast (XenoGene strain)
- Sequence (Q04759 whole entry): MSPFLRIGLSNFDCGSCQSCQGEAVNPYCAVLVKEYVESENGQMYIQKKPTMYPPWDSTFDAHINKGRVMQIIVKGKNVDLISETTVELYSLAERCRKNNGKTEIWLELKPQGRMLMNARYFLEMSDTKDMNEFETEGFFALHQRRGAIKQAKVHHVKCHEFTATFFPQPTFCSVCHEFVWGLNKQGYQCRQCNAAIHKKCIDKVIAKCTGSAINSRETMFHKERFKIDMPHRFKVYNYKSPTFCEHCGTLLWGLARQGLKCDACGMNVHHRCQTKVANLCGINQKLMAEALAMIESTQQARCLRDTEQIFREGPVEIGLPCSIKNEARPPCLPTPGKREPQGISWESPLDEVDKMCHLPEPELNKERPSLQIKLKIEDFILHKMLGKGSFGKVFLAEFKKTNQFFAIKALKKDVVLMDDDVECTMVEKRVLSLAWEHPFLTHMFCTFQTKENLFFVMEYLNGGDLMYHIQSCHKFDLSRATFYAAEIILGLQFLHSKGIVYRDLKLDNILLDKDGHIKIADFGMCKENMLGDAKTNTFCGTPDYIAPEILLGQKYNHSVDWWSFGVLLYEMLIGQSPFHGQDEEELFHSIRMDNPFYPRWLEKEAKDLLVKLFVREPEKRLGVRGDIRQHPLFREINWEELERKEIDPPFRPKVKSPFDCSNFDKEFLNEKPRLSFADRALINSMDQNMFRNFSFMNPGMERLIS
- method_summary: XenoGene yeast growth inhibition, yeast containing human PKC theta gene
- Format: cell-based
- condition: 50% inhibition of growth of yeast containing the target gene; read-out: IC50
pIC50: −log10 of the molar value.
measured_attribute: pIC50

- Nc1ccc(Oc2ccccc2C(=O)O)cc1: < 5.00
- CC(C)(C)c1ccc(Oc2ccc(N)nc2)cc1: < 5.00
- CCC(C)(C)c1ccc(Oc2ccc(N)cc2)cc1: > 6.00
- Nc1ccc([S+]([O-])c2ccc(C(F)(F)F)cc2)cc1 (stereo not shown): < 5.00
- Cc1ccc(Oc2ccc(N)cc2)cc1: 5.00 to 6.00
- CC(C)(C)c1ccc(S(=O)(=O)c2ccc(N)cc2)cc1 [Compound 750]: < 5.00
- Nc1ccc(Oc2ccc(C3CCCC3)cc2)cc1: > 6.00
- Nc1ccc(Oc2ccc(OC(F)(F)F)cc2Cl)cc1: > 6.00
- Nc1ccc(Oc2ccc(Cl)cc2Cl)cc1: 5.00 to 6.00
- CC(C)(C)c1ccc(Oc2ccc(N)cc2)cc1: > 6.00

====

- target_entity: PKC epsilon (Homo sapiens)
- Construct: expressed in transfected cells; host or cells: yeast (XenoGene strain)
- Sequence (Q02156 1-737): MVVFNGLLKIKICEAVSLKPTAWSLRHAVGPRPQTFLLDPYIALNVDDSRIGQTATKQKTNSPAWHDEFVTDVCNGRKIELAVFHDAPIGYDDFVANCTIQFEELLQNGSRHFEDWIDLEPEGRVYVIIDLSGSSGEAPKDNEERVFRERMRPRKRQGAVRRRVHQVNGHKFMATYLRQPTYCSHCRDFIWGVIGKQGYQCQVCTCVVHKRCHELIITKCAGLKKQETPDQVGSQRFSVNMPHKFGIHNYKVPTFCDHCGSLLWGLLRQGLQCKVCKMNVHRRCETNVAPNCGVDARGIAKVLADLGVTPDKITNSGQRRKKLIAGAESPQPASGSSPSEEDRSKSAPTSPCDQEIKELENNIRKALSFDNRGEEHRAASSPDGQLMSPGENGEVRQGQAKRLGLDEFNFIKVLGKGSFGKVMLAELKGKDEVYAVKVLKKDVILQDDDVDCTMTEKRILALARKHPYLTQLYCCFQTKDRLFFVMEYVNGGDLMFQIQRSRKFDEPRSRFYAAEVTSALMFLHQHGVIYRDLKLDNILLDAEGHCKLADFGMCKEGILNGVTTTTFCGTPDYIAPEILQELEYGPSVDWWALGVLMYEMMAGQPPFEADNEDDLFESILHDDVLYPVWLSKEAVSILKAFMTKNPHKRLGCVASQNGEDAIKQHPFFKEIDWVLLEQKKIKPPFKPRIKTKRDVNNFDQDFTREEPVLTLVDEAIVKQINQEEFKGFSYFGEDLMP
- method_summary: XenoGene counter-screen, PKC epsilon
- Assay type: cell-based
- condition: inverse of (PKC-theta IC50)/(PKC-X IC50)
Entries and their Selectivity for PKC-theta v. PKC-epsilon values follow.
measured_attribute: Selectivity for PKC-theta v. PKC-epsilon

• Nc1ccc(Oc2cc(Cl)cc(Cl)c2)cc1 = 8.8
• Nc1ccc(Oc2ccc(Cl)cc2Cl)cc1 = 2.5
• Nc1ccc(Sc2ccc(C(F)(F)F)cc2)cc1 = 16
• Cc1cc(Oc2ccc(N)cc2)ccc1Cl = 11
• CC(C)(C)c1ccc(Oc2ccc(N)cc2)cc1 = 1.1
• CC(C)(C)c1ccc(Sc2ccc(N)cc2)cc1 = 12

The reported numbers originate from patent US8664277B2.
